System: MRC5
Experiment: Cytotoxicity against human MRC5 cells assessed as mortality at 10 ug/ml relative to control
Type: cell-based
Could you please report measured mortality for the items listed next?
Answers are plain numbers, in %.

Use the examples below as a reference point.
{"compound": "CC(=O)OC[C@]12[C@H](OC(=O)c3ccccc3)[C@H](OC(C)=O)[C@H]3OC(=O)C(C)(O)CCc4ncccc4C(=O)OC[C@@]4(C)O[C@@]1([C@H]3C)[C@@H](OC(C)=O)[C@@H]4C(=O)[C@@H]2OC(C)=O (stereo not given in full)", "measured-value": 15}
{"compound": "CC(=O)OC[C@]12[C@H](OC(C)=O)[C@H](OC(C)=O)[C@H]3OC(=O)C(C)(O)CCc4ncccc4C(=O)OC[C@@]4(C)O[C@@]1([C@H]3C)[C@@H](OC(C)=O)[C@@H]4C(=O)[C@@H]2OC(C)=O (stereo not given in full)", "measured-value": 38}
{"compound": "CC(=O)OC[C@]12[C@H](OC(=O)c3ccccc3)[C@H](OC(=O)c3ccccc3)[C@H]3OC(=O)C(C)(O)CCc4ncccc4C(=O)OC[C@@]4(C)O[C@@]1([C@H]3C)[C@@H](OC(C)=O)[C@@H]4C(=O)[C@@H]2OC(C)=O (stereo not given in full)", "measured-value": 21}
{"compound": "CC(=O)OC[C@]12[C@H](OC(C)=O)[C@H](OC(=O)c3ccccc3)[C@H]3OC(=O)C(C)(O)CCc4ccncc4C(=O)OC[C@@]4(C)O[C@@]1([C@H]3C)[C@@H](OC(C)=O)[C@@H]4[C@@H](OC(C)=O)[C@@H]2OC(C)=O (stereo not given in full)", "measured-value": 17}

Now for a further compound.
Task: mortality lookup needed for `C[C@H]1C(=O)CC[C@@H]2[C@]1(C)CC[C@H]1[C@@]2(C)C[C@H](O)[C@@]2(C)[C@@H]3CC(C)(C)CC[C@]3(C)[C@@H](O)C[C@]12C` , thanks.
Output: 48
